- System: DriD(G18K-A20K) (Caulobacter crescentus)
- ASSAY NAME: fluorescence polarization
- EXPERIMENTAL SETUP: FP: 25 mM Tris-HCl pH 7.5, 150 mM NaCl, 2.5% glycerol, 100 uM ssDNA, temperature not stated; cryo-EM: 20 mM Tris-HCl pH 8, 5 mM MgCl2, 100 mM NaCl, 1 mM bME …
QUANTITY MEASURED: Kd (nM)
Just the number please, in nM, no unit attached.

The measured Kd associated with ATACGACAGTAACTGTCGTAT (double strand) [F-DriD target DNA] reads 9.2

* * *

- Test system: DriD WT (Caulobacter crescentus)
- ASSAY NAME: fluorescence polarization
- EXPERIMENTAL SETUP: FP: 25 mM Tris-HCl pH 7.5, 150 mM NaCl, 2.5% glycerol, 100 uM ssDNA, temperature not stated; cryo-EM: 20 mM Tris-HCl pH 8, 5 mM MgCl2, 100 mM NaCl, 1 mM bME …
QUANTITY MEASURED: Kd

The measured Kd associated with ATACGACAGTAACTGTCGTAT (double strand) [F-DriD target DNA] reads 7.1 nM

Origin of measurements: paper PMC12340889
